- System: HCC1428
- protocol.text: CTG assay for proliferation inhibition of cell lines
- Assay type: cell-based
- test.conditions: HCC1428, 7 days, CellTiter Glo
recorded.metric: IC50 (µM)

Known results for compounds:
[
  {
    "compound": "CC(C)S(=O)(=O)N1CC=C(c2cc(S(=O)(=O)NC3(C#N)CC3)cc3c(-c4ccc(C(F)F)nn4)nn(C)c23)CC1",
    "IC50, µM": 0.532
  },
  {
    "compound": "CC(C)S(=O)(=O)N1CCC(c2cc(S(=O)(=O)NC3(C#N)CC3)cc3c(-c4nnc(C(F)F)s4)nn(C)c23)=C(F)C1",
    "IC50, µM": 0.47
  },
  {
    "compound": "CC(C)[S+]([O-])N1CC=C(c2cc(S(=O)(=O)NC3(C#N)CC3)cc3c(-c4nnc(C(F)F)s4)nn(C)c23)CC1 (centres unmarked)",
    "IC50, µM": 0.152
  }
]

1 = Cn1nc(-c2nnc(C(F)F)s2)c2cc(S(=O)(=O)NC3(C#N)CC3)cc(C3=CCN(S(=O)(=O)C4CCNCC4)CC3)c21
2 = CC(C)S(=O)(=O)N1CCC(c2cc(S(=O)(=O)NC3(C#N)CC3)cc3c(-c4nnc(C(F)(F)F)s4)nn(C)c23)=C(CO)C1
3 = CC(C)S(=O)(=O)N1Cc2cn(-c3cc(S(=O)(=O)NC4(C#N)CC4)cc4c(-c5nnc(C(F)F)s5)nn(C)c34)nc2C1
4 = CC(C)S(=O)(=O)N1CC=C(c2cc(S(=O)(=O)NC3(C)CC3)cc3c(-c4nnc(C(F)F)s4)nn(C)c23)CC1
5 = Cn1nc(-c2nnc(C(F)F)s2)c2cc(S(=O)(=O)NC3(C#N)CC3)cc(C3=CCN(S(=O)(=O)C4CCOCC4)CC3)c21
// sort entries: IC50, high to low Could you list the labels in the order requested? 3, 1, 4, 5, 2

a = CC(C)S(=O)(=O)N1CCC2(c3cc(S(=O)(=O)NC4(C#N)CC4)cc4c(-c5nnc(C(F)F)s5)nn(C)c34)OC2C1 (centres unmarked)
b = Cn1nc(-c2nnc(C(F)F)s2)c2cc(S(=O)(=O)NC3(C#N)CC3)cc(C3=CCN(S(=O)(=O)C4COC4)CC3)c21
Looking at recorded values for IC50, does a or b come in lower? Lab log: write the label of the selected item as the result. a
(a: 0.4 µM, b: 1.09 µM)
